System: 13 unique dsDNA targets
TEST_SUMMARY: All-by-all yeast surface display screen of DBP design hits
Type: binding
STUDY_CONDITIONS: 1 μM dsDNA with avidity; including designed target sequence
MEASURED_METRIC: Number of the 13 tested DNA target sequences preferentially bound

INSERT INTO assay_data (molecule, result) VALUES
  ('DBP57: designed DNA-binding protein, SEQ ID NO: 31, DNA target E (protein) MVLTPMERIGEFIKRARREAGLTQRELAELAGVGQSTVSRIEKGEKCSPELVEKILEALRKV', 'less than 3'),
  ('DBP56: designed DNA-binding protein, SEQ ID NO: 30, DNA target E (protein) PPPTPFEVAGARIKEERAKLGLTQAELAKVAGVGQATVSRIEKGRKCSWELIEKIFEALKKV', 'less than 3'),
  ('DBP35: designed DNA-binding protein, SEQ ID NO: 15, DNA target B (protein) GFGRAVKEKRKELGLTQKEFAEKAGLSRRTIIRIERGYIVPPKATKEKIAKALGTSVEELEQA', 'less than 3');
